TEST PROTOCOL: CellTiter-Glo cell viability assay
Type: cell-based
RUN CONDITIONS: human, HepG2 cells; HepG2, 72 h
PARAMETER: CC50 at 72 h (nM)
Enter your answer as a number in nM; do not include the unit.

Reported CC50 at 72 h for NC(=O)c1cn([C@@H]2O[C@H](CO)[C@@H](O)[C@H]2O)c2ncnc(N)c12 : what is it?
1770

* * *

Test system: SARS-CoV-2 P.2 (Zeta)
TEST PROTOCOL: microbe, parasite or virus in culture
Type: cell-based
RUN CONDITIONS: Severe acute respiratory syndrome coronavirus 2, Vero C1008, 24 h
PARAMETER: pIC50
Remember, pIC50 is on a log scale: it is -log10 of the molar concentration.

# COMPOUND, pIC50
rows = [
    ("NC(=O)c1cn([C@@H]2O[C@H](CO)[C@@H](O)[C@H]2O)c2ncnc(N)c12 [Sangivamycin, sangivamycin]", 7.53),
]

Below: the item to evaluate.
Given CCC(CC)COC(=O)[C@H](C)N[P@](=O)(OC[C@H]1O[C@@](C#N)(c2ccc3c(N)ncnn23)[C@H](O)[C@@H]1O)Oc1ccccc1 [Remdesivir, remdesivir, reference compound] , state its recorded pIC50.
5.81

* * *

TEST PROTOCOL: CellTiter-Glo cell viability assay
Format: cell-based
RUN CONDITIONS: Primary human hepatocytes
PARAMETER: CC50 at 72 h (nM)
Please reply with the bare figure in nM and do not write the unit itself.

Param item = NC(=O)c1cn([C@@H]2O[C@H](CO)[C@@H](O)[C@H]2O)c2ncnc(N)c12 ; retrieve measured CC50 at 72 h.
439

* * *

Test system: multiple cell types
TEST PROTOCOL: CellTiter-Glo cell viability assay, average of 8 cell types
Format: cell-based
RUN CONDITIONS: average ± SEM, n = 8 cell types
PARAMETER: CC50

Fill in the blank: the reported CC50 of NC(=O)c1cn([C@@H]2O[C@H](CO)[C@@H](O)[C@H]2O)c2ncnc(N)c12 [Sangivamycin, sangivamycin] is ____.
607 nM

* * *

TEST PROTOCOL: 24-hour plasma pharmacokinetics in CD-1 laboratory mice
Assay type: in vivo, mouse
RUN CONDITIONS: female, mouse, plasma, ip; CD-1 mice, females, i.p. 60 mg/kg; read-out: Cmax of the plasma
PARAMETER: Cmax (ng/mL)
Numeric answer only, unit ng/mL assumed.

# Cmax lookup, item NC(=O)c1cn([C@@H]2O[C@H](CO)[C@@H](O)[C@H]2O)c2ncnc(N)c12
285

* * *

TEST TARGET: CYP2B6 (Homo sapiens, UniProt P20813)
Sequence (P20813 whole entry): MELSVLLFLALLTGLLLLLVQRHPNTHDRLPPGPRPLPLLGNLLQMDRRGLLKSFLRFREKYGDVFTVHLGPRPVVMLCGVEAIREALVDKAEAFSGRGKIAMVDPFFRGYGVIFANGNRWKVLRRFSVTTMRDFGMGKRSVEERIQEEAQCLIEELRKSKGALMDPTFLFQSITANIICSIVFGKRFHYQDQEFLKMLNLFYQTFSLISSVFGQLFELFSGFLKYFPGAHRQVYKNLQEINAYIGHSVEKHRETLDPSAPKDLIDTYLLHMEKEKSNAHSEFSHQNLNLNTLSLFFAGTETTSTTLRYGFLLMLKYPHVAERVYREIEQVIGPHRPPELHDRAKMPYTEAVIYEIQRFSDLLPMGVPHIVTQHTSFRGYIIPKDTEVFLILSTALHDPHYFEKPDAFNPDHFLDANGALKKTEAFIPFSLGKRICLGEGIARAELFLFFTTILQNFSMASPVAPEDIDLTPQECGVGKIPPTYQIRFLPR
PARAMETER: IC50

Reported IC50, molecule NC(=O)c1cn([C@@H]2O[C@H](CO)[C@@H](O)[C@H]2O)c2ncnc(N)c12 [Sangivamycin, sangivamycin] : ____
> 100 µM

* * *

TEST PROTOCOL: Plasma protein binding assessment (equilibrium dialysis)
Assay type: in vitro ADME
RUN CONDITIONS: human, 37°C
PARAMETER: fraction unbound
Format: numeric value only, no unit, no commentary.

Would you kindly share the measured fraction unbound for NC(=O)c1cn([C@@H]2O[C@H](CO)[C@@H](O)[C@H]2O)c2ncnc(N)c12 [Sangivamycin, sangivamycin] ?
0.83

* * *

TEST PROTOCOL: Turbidimetric aqueous solubility screening
Type: physicochemical
RUN CONDITIONS: PBS, pH 7.4, PBS pH 7.4, 2 hours at 37°C, high test concentration 500 μM
PARAMETER: solubility at 2 h

Could you share which solubility at 2 h value was measured for NC(=O)c1cn([C@@H]2O[C@H](CO)[C@@H](O)[C@H]2O)c2ncnc(N)c12 ?
≥ 500 µM
